Molecular target: IKKε (Homo sapiens)
Construct: purchased Invitrogen PR8031B
Assay: IKKε inhibition, ADP-Glo Kinase Assay
Assay type: biochemical
Details: luminometer
metric: IC50 (µM)

In the examples that follow, each entry is paired with its recorded IC50.
CCC(C)(NC(=O)c1ccc2[nH]nc(NC(=O)c3ccc(F)cc3)c2c1)c1cccs1 (stereo not shown) :: 1.74
CCCCNC(=O)c1ccc2[nH]nc(NC(=O)c3ccc(N4CCOCC4)cc3)c2c1 [Example 115, 2,2,2-trifluoroacetate] :: 0.97
CC(C)CC(NC(=O)c1ccc2[nH]nc(NC(=O)c3ccc(N4CCOCC4)cc3)c2c1)c1cccs1 (stereo not shown) :: 0.9
O=C(NCc1c[nH]nn1)c1ccc2[nH]nc(NC(=O)c3ccc(N4CCOCC4)cc3)c2c1 [Example 119, 2,2,2-trifluoroacetate] :: 1.24

[1] O=C(NCc1cccs1)c1ccc2[nH]nc(NC(=O)c3ccc(F)cc3F)c2c1
[2] O=C(NCc1cccnc1)c1ccc2[nH]nc(NC(=O)c3ccc(N4CCOCC4)cc3)c2c1 [Example 56, 2,2,2-trifluoroacetate]
[3] O=C(NCc1ccc(C(F)(F)F)cc1)c1ccc2[nH]nc(NC(=O)c3ccc(N4CCOCC4)cc3)c2c1
Ask: Sort ascending by IC50. Use the labels to give the ranking in the order requested.
Reply: 2, 1, 3

* * *

Biological target: TBK1 (Homo sapiens)
Construct: purchased Promega V3991
Sequence (Q9UHD2 whole entry): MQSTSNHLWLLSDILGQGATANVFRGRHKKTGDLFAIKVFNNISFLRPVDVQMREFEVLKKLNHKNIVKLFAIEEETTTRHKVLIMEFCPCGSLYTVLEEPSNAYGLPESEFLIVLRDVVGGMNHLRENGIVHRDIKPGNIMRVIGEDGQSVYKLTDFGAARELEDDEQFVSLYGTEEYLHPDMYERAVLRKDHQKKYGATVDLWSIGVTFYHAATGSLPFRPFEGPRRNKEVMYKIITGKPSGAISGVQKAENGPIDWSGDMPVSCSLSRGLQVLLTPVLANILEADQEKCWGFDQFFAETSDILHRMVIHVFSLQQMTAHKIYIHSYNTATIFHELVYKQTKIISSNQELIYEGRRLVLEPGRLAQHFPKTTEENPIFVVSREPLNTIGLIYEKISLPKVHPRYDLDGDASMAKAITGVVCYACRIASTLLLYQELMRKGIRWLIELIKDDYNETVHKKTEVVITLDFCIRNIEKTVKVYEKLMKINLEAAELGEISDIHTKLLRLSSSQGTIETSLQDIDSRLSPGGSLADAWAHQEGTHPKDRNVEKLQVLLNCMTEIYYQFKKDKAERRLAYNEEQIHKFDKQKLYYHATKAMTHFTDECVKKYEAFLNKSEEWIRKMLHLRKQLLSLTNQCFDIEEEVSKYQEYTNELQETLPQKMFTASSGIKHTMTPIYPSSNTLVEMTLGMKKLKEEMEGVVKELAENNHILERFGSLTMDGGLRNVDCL
Experiment: TBK1 inhibition, ADP-Glo Kinase Assay
Assay type: biochemical
Settings: luminometer
metric: IC50 (µM)

O=C(NCc1cccs1)c1ccc2[nH]nc(NC(=O)c3ccc(NCCC4CCOCC4)cc3)c2c1 [Example 160] :: 0.0054
CN1CCN(c2ccc(C(=O)Nc3n[nH]c4ccc(C(=O)NCc5cccnc5)cc34)cc2)CC1 [Example 57, bis(2,2,2-trifluoroacetate)] :: 0.0012
CCCCCCNc1ccc(C(=O)Nc2n[nH]c3ccc(C(=O)NCc4cccs4)cc23)cc1 [Example 161] :: 0.76
CN1CCN(c2ccc(C(=O)Nc3n[nH]c4ccc(C(=O)NC(c5cccnc5)C5CC5)cc34)cc2)CC1 (stereo not shown) [Example 143] :: 0.071

[1] CC(NC(=O)c1ccc2[nH]nc(NC(=O)c3ccc(N4CCN[C@@H](C)C4)cc3)c2c1)c1ccccc1 (stereo partly shown) [Example 184, 2,2,2-trifluoroacetate]
[2] CNCCN(C)c1ccc(C(=O)Nc2n[nH]c3ccc(C(=O)NCc4cccs4)cc23)cc1 [Example 155]
Ask: Kindly compare 1 with 2 and tell me which has the lower IC50 figure. # answer = label of selected item
Reply: 1
(1: 0.0037 µM, 2: 0.0064 µM)

* * *

Molecular target: IKKε (Homo sapiens, UniProt Q14164)
Construct: purchased Invitrogen PR8031B
Sequence (Q14164 whole entry): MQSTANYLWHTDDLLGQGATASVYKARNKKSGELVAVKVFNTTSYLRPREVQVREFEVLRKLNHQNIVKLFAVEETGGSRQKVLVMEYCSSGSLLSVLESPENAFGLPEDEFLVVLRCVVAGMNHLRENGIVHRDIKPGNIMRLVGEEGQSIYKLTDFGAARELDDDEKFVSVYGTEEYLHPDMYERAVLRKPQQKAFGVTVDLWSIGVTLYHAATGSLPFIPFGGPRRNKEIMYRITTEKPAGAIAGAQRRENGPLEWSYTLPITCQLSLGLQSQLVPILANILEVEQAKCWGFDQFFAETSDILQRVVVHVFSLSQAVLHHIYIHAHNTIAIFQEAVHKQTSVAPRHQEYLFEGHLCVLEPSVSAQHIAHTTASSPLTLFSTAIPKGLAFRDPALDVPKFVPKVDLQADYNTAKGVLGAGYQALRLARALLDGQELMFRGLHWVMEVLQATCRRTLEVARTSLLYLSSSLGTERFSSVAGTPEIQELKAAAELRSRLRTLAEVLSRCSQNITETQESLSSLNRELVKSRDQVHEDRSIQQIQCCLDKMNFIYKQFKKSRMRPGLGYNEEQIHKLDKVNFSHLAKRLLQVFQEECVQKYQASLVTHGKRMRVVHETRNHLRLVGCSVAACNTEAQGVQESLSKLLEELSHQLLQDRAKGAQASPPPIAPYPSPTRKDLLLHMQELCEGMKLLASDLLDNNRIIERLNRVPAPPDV
Experiment: IKKε inhibition, ADP-Glo Kinase Assay
Assay type: biochemical
Details: luminometer
metric: IC50 (µM)

[a] CC(CCO)NC(=O)c1ccc2[nH]nc(NC(=O)c3ccc(N4CCN(C)CC4)cc3)c2c1 (stereo not shown)
[b] CN1CCN(c2ccc(C(=O)Nc3n[nH]c4ccc(C(=O)NCc5ccc(F)cc5)cc34)cc2)CC1
[c] CN1CCN(c2ccc(C(=O)Nc3n[nH]c4ccc(C(=O)NC(CO)c5cccs5)cc34)cc2)CC1 (stereo not shown)
[d] CN1CCN(c2ccc(C(=O)Nc3n[nH]c4ccc(C(=O)C(C(=O)O)c5cccs5)cc34)cc2)CC1 (stereo not shown)
Ask: // rank above by IC50: first = highest number Reply: labels, ordered per the request.
Reply: a, d, b, c
